# subject of test: T1, human CD80-murine Ig fusion protein (human)
# T1 construct: Bought (Ancell #510-820); also called hCD80-mIg; human CD80-murine IgG
# T1 chain: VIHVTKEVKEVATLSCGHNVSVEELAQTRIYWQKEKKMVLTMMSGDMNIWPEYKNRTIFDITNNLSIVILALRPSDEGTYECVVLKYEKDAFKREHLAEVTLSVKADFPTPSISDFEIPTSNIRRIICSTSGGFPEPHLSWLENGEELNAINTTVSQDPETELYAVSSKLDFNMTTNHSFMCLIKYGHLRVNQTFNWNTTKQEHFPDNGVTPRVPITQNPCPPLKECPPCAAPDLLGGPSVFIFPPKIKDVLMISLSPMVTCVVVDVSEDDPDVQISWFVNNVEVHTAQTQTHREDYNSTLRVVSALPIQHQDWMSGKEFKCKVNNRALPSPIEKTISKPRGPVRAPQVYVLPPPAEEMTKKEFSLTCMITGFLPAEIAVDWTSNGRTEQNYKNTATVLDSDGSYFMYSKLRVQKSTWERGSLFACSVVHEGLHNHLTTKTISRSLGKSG
# assay text: SPR Biacore, hCD80-mIg captured
test readout: Kd

Give the value of Kd reported for the following: D20-IgG2 (Fc fusion) MHVAQPAVVLASSRGIASFVCEYESPHKATEIRVTVLRQADSQVTEVCAMTYMMEDELTFLDDPICTGTFSGNQVNLTIQGLRAMDTGLYICKVELMYPPPYYLGIGNGTQIYVIDPEPCPDSDERKCCVECPPCPAPPVAGPSVFLFPPKPKDTLMISRTPEVTCVVVDVSHEDPEVQFNWYVDGVEVHNAKTKPREEQFNSTFRVVSVLTVVHQDWLNGKEYKCKVSNKGLPAPIEKTISKTKGQPREPQVYTLPPSREEMTKNQVSLTCLVKGFYPSDIAVEWESNGQPENNYKTTPPMLDSDGSFFLYSKLTVDKSRWQQGNVFSCSVMHEALHNHYTQKSLSLSPG
0.439 to 1.75 nM
